Measured IC50 of individual entries
- test-target: Xanthine dehydrogenase/oxidase (Homo sapiens, UniProt P47989)
- Sequence (P47989 whole entry): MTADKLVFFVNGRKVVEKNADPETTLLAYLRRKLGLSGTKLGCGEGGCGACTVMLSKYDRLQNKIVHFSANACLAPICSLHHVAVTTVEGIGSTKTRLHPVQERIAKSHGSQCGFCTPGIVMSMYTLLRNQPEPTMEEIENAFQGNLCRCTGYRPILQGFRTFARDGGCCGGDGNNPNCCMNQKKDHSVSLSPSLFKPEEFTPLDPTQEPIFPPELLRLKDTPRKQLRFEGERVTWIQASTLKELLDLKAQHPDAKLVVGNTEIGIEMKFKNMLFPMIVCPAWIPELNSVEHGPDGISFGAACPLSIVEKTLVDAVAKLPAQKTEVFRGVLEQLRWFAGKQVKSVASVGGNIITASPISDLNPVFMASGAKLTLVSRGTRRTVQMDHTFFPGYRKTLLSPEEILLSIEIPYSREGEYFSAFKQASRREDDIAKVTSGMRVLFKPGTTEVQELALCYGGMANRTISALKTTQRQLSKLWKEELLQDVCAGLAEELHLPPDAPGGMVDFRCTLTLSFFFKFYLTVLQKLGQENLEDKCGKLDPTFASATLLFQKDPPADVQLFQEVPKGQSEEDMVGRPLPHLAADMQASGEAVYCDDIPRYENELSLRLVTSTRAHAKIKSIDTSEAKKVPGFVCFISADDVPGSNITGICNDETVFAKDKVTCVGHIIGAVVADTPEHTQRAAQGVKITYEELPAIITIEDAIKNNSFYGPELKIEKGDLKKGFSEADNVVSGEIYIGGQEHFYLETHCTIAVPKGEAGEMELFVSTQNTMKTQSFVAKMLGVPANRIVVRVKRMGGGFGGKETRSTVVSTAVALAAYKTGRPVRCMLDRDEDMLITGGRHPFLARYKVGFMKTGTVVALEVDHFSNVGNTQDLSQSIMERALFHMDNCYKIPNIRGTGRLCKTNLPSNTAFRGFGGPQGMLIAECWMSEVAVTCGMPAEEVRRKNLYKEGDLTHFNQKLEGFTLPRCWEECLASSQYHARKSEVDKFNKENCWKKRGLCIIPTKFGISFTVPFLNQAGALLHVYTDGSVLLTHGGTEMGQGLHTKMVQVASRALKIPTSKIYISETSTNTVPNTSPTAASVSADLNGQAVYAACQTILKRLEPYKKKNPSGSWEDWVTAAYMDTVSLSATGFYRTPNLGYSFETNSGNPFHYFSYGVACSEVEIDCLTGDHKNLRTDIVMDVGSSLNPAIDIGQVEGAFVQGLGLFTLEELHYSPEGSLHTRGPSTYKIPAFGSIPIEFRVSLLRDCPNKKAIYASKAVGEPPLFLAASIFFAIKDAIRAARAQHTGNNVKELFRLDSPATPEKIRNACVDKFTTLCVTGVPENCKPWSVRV
- assay-text: Inhibition of xanthine oxidase assessed as decrease of superoxide generation
measurement-kind: IC50 (µM)

compound: O=c1c(-c2ccc(O)cc2)coc2cc(O)ccc12 [DAIDZEIN]
value-qualifier: =
recorded-value: 430
//
compound: O=c1c(-c2ccc(O)c(O)c2)coc2cc(O)ccc12
value-qualifier: =
recorded-value: 16.8
//
compound: O=c1c(-c2ccc(O)cc2)coc2cc(O)c(O)cc12
value-qualifier: >
recorded-value: 1000
//
compound: O=c1c(-c2ccc(O)cc2)coc2cc(O)cc(O)c12 [GENISTEIN]
value-qualifier: =
recorded-value: 232
//
compound: COc1cc2c(=O)c(-c3ccc(O)cc3)coc2cc1O [GLYCITEIN]
value-qualifier: =
recorded-value: 683
//
compound: O=c1c(-c2ccc(O)cc2)coc2c(O)c(O)ccc12
value-qualifier: =
recorded-value: 6.6

These data points were gathered from ChEMBL document CHEMBL1144161.
